Molecular target: recombinant human MGAT2 (Homo sapiens (Human), UniProt Q3SYC2)
Sequence (Q3SYC2 whole entry): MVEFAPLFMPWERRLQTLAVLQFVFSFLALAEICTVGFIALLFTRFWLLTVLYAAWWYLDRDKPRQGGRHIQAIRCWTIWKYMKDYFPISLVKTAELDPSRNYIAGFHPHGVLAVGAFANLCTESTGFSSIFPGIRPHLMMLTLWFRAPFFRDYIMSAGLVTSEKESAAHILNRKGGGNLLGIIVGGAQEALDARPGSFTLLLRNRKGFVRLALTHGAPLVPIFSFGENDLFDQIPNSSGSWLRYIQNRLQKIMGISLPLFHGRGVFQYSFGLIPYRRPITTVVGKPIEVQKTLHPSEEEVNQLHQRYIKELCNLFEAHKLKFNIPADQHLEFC
Experiment: Measurement of human MGAT2 inhibitory activity
Format: biochemical
Settings: read-out: IC50 (concentration exhibiting 50% enzyme inhibition), Table 53
pIC50: −log10 of the molar value.
Measurement Name: pIC50

Dear colleague, I am looking for the recorded pIC50 of the following compound: CC(F)(F)COc1ccc2c(c1)CC[C@]21Cc2nn(-c3ccc(C(F)F)cc3)c(NC(=O)CS(C)(=O)=O)c2C(=O)N1
8.48

[I] CS(=O)(=O)CC(=O)Nc1c2c(nn1-c1ccc(C#N)cn1)C[C@]1(CCc3cc(Cl)ccc31)NC2=O
[II] Cc1ccc(-n2nc3c(c2C(=O)NCC#N)C(=O)N[C@@]2(CCc4cc(OCC(F)(F)F)ccc42)C3)cc1F
[III] CS(=O)(=O)CC(=O)Nc1c2c(nn1CCC1CC1)C[C@@]1(CCc3cc(N4CC(C(F)F)C4)ccc31)NC2=O
[IV] Cc1ccc(-n2nc3c(c2NC(=O)CS(C)(=O)=O)C(=O)N[C@@]2(CCc4cc(CCC(F)(F)F)ccc42)C3)nn1
Order the entries by their reported pIC50, beginning at the minimum. Your reply should list the labels following the order given in the request.
II, III, I, IV

[P] Cc1ccc(-n2nc3c(c2NC(=O)CS(C)(=O)=O)C(=O)N[C@@]2(CCc4cc(C5CC5)ccc42)C3)nc1
[Q] Cc1ccc(-n2nc3c(c2C(=O)NCCC(F)(F)F)C(=O)N[C@@]2(CCc4cc(OCC(F)(F)F)ccc42)C3)nc1
When their pIC50 values are compared, which is larger, P or Q ? API: response body contains the label of the selected item.
P
(P: 8.44, Q: 7.53)

====

Target: recombinant human MGAT2 (Homo sapiens (Human))
Experiment: Measurement of human MGAT2 inhibitory activity
Type: biochemical
Settings: read-out: IC50 (concentration exhibiting 50% enzyme inhibition), Table 52
pIC50: −log10 of the molar value.
Measurement Name: pIC50

# input molecule: CS(=O)(=O)CC(=O)Nc1c2c(nn1-c1ccc(F)c(F)c1)C[C@]1(CCc3cc(OCC(F)(F)F)ccc31)NC2=O ; wanted: its pIC50
8.28

[P] CS(=O)(=O)CC(=O)Nc1c2c(nn1-c1ccc(C#N)cn1)C[C@]1(CCc3cc(N4CC(F)(F)C4)ccc31)NC2=O [Compound I-163]
[Q] O=C(Nc1c2c(nn1CCC1CC1)C[C@]1(CCc3cc(OCC(F)(F)F)ccc31)NC2=O)c1cnccn1
Task for the reader: decide whether P or Q has the larger pIC50. To answer, give the label that identifies your chosen option.
P
(P: 8.44, Q: 7.05)

====

Target: recombinant human MGAT2 (Homo sapiens (Human), UniProt Q3SYC2)
Assay: Measurement of human MGAT2 inhibitory activity
Format: biochemical
Details: read-out: IC50 (concentration exhibiting 50% enzyme inhibition), Table 53
pIC50: −log10 of the molar value.
Measurement Name: pIC50

Below, each entry is followed by its recorded pIC50 result.
Recorded pIC50 for CS(=O)(=O)CC(=O)Nc1c2c(nn1CCCC(F)(F)F)C[C@]1(CCOc3cc(OCC(F)(F)F)ccc31)NC2=O [II-65] , please?
8.72

Data request, read-out pIC50, for Cc1ccc(-n2nc3c(c2C(=O)NCC#N)C(=O)N[C@@](c2ccc(OCC(F)(F)F)cc2F)(C(F)(F)F)C3)nc1 [II-239]
8.34

Give its pIC50 value. Item: CC1(CNC(=O)c2c3c(nn2-c2ccc(C#N)cn2)C[C@]2(CCc4cc(OCC(F)(F)F)ccc42)NC3=O)COC1 [II-186]
8.53

[I] N#Cc1ccc(-n2nc3c(c2C(=O)NCC2CC2)C(=O)N[C@@]2(CCc4cc(OCC(F)(F)F)ccc42)C3)nc1 [II-179]
[II] CS(=O)(=O)CC(=O)Nc1c2c(nn1-c1ccc(C#N)cn1)CC1(CN(c3c(F)cc(C(F)(F)F)cc3F)C1)NC2=O [II-74]
Hello, I am sorting some records. Could you say if I or II has the smaller pIC50 value? Answer format: the label of the selected item.
I
(I: 8.00, II: 8.64)

[A] Cc1cc(-n2nc3c(c2NC(=O)CS(C)(=O)=O)C(=O)N[C@@]2(CCc4cc(OCC(F)(F)F)ccc42)C3)on1 [II-169]
[B] CNC(=O)CNC(=O)c1c2c(nn1-c1ccc(C#N)cn1)C[C@]1(CCc3cc(OCC(F)(F)F)ccc31)NC2=O [II-181]
[C] CC(C)(CNC(=O)c1c2c(nn1-c1ccc(C#N)cn1)C[C@]1(CCc3cc(OCC(F)(F)F)ccc31)NC2=O)C(N)=O [II-115]
[D] Cc1ccc(-n2nc3c(c2C(=O)NS(=O)(=O)c2ccccc2)C(=O)N[C@@]2(CCc4cc(OCC(F)(F)F)ccc42)C3)nc1 [II-210]
[E] Cc1cc(-n2nc3c(c2NC(=O)CS(C)(=O)=O)C(=O)N[C@@]2(CCc4cc(OCCCC(F)(F)F)ccc42)C3)nn1C [II-268]
Arrange the 5 entries by pIC50 so the values rise. Your task in answering is to list the labels in the requested order.
C, D, B, A, E
(C: 6.69, D: 7.05, B: 7.54, A: 8.13, E: 8.91)

[I] CCO[C@H]1C[C@H](n2nc3c(c2NC(=O)CS(C)(=O)=O)C(=O)N[C@@]2(CCc4cc(OCC(F)(F)F)ccc42)C3)C1 [II-193]
[II] Cc1ccc(-n2nc3c(c2NC(=O)CS(C)(=O)=O)C(=O)N[C@@]2(CCc4cc(OCC(F)(F)F)ccc42)C3)cc1F [II-136]
Parameter metric = pIC50. Return the lower-valued option from I and II . Provide the label of your selected option as the answer.
I
